Origin of measurements: the supplement of paper PMC13207355

- Tested on: E13 (patient-derived glioblastoma stem cells of classical subtype)
- MEASUREMENT_PROTOCOL: surviving fraction (nuclei count normalised to DMSO); higher = more cells surviving (less toxic)
- STATED_CONDITIONS: 12.34567901 nM; exposure time: 72 h
Structures can show the parent of a compound that is named as a salt.
Entries annotated with measured surviving fraction
REPORTED_PROPERTY: surviving fraction

compound="COc1cc2nc(N3CCN(C(=O)c4ccco4)CC3)nc(N)c2cc1OC [Prazosin hydrochloride]" target=E13 reported_property="surviving fraction" measurement=0.996
compound=OCCN1C[C@H](O)[C@@H](O)[C@H](O)[C@H]1CO target=E13 reported_property="surviving fraction" measurement=0.888
compound=O=[N+]([O-])c1ccc2c(c1)S(=O)(=O)C=C2 target=E13 reported_property="surviving fraction" measurement=0.789
compound=C[C@@H](O)[C@H]1C(=O)N2C(C(=O)O)=C(S[C@@H]3CN[C@H](C(=O)N(C)C)C3)[C@H](C)[C@H]12 target=E13 reported_property="surviving fraction" measurement=1.11
compound=CC(C)C[C@H](NC(=O)[C@H](Cc1ccccc1)C[C@@H](O)[C@H](Cc1ccccc1)NC(=O)OC(C)(C)C)C(=O)N[C@@H](Cc1ccccc1)C(N)=O target=E13 reported_property="surviving fraction" measurement=1.1
compound=COC(=O)Nc1nc2cc(C(=O)c3cccs3)ccc2[nH]1 target=E13 reported_property="surviving fraction" measurement=0.309

###

- Test system: E31 (patient-derived glioblastoma stem cells of proneural subtype)
- MEASUREMENT_PROTOCOL: phenotypic distance (Euclidean, principal components) from DMSO controls (arbitrary units); higher = stronger morphological change
- STATED_CONDITIONS: 111.1 nM; exposure time: 72 h
Counter-ions that a name gives are not always drawn.
REPORTED_PROPERTY: phenotypic distance

compound="N=C(N)NCc1cccc(I)c1 [Iobenguane sulfate]" target=E31 reported_property="phenotypic distance" measurement=0.714
compound="CC(C)NCC(O)c1cc(O)cc(O)c1 (centres undefined) [Metaproterenol sulfate, orciprenaline sulfate]" target=E31 reported_property="phenotypic distance" measurement=0.625
compound="C[C@@H](O[C@H]1OCCN(Cc2n[nH]c(=O)[nH]2)[C@H]1c1ccc(F)cc1)c1cc(C(F)(F)F)cc(C(F)(F)F)c1 [Aprepitant]" target=E31 reported_property="phenotypic distance" measurement=0.647
compound=CCCCCCNC(=O)n1cc(F)c(=O)[nH]c1=O target=E31 reported_property="phenotypic distance" measurement=0.782

###

- System: E28 (patient-derived glioblastoma stem cells of classical subtype)
- MEASUREMENT_PROTOCOL: surviving fraction (nuclei count normalised to DMSO); higher = more cells surviving (less toxic)
- STATED_CONDITIONS: 111.1111111 nM; exposure time: 72 h
Structures can show the parent of a compound that is named as a salt.
Entries annotated with measured surviving fraction
REPORTED_PROPERTY: surviving fraction

compound=Cc1ccc(NC(=O)c2ccc3c(c2)OCCO3)cc1NC(=O)c1ccc2nc(OCCN3CCCC3)ccc2c1 reported_property="surviving fraction" measurement=0.32
compound="COC(=O)[C@@H]1[C@H]2C[C@H]3c4[nH]c5ccccc5c4CCN3C[C@@H]2CC[C@@H]1O [Yohimbine hydrochloride]" reported_property="surviving fraction" measurement=0.945
compound=C/C=C(\C)C(=O)N[C@@H](c1ccccc1)[C@@H](O)C(=O)O[C@H]1C[C@@]2(O)[C@@H](OC(=O)c3ccccc3)[C@@H]3[C@]4(OC(C)=O)CO[C@@H]4C[C@H](O)[C@@]3(C)C(=O)[C@H](OC(C)=O)C(=C1C)C2(C)C reported_property="surviving fraction" measurement=0.357
compound=Cc1[nH]nc(C(F)(F)F)c1Cc1sc2c(c1C(=O)N1C[C@](C)(O)CO1)c(=O)n(C)c(=O)n2C(C)C reported_property="surviving fraction" measurement=0.599
compound=Cc1cc(C)c(CN2CCc3c(Cl)cc(-c4c(C)noc4C)c(Cl)c3C2=O)c(=O)[nH]1 reported_property="surviving fraction" measurement=0.947
compound=COC(=O)Nc1nc2cc(C(=O)c3cccs3)ccc2[nH]1 reported_property="surviving fraction" measurement=0.353
compound=Nc1ncn([C@@H]2O[C@H](CO)[C@@H](O)[C@H]2O)c(=O)n1 reported_property="surviving fraction" measurement=0.969
compound="COc1cc([C@@H]2c3cc4c(cc3[C@@H](O[C@@H]3O[C@@H]5CO[C@@H](C)O[C@H]5[C@H](O)[C@H]3O)[C@H]3COC(=O)[C@H]23)OCO4)cc(OC)c1O [Etoposide]" reported_property="surviving fraction" measurement=0.419
compound=C[C@@H](O)[C@H]1C(=O)N2C(C(=O)O)=C(S[C@@H]3CN[C@H](C(=O)N(C)C)C3)[C@H](C)[C@H]12 reported_property="surviving fraction" measurement=1.08

###

- Tested on: E21 (patient-derived glioblastoma stem cells of mesenchymal subtype)
- MEASUREMENT_PROTOCOL: surviving fraction (nuclei count normalised to DMSO); higher = more cells surviving (less toxic)
- STATED_CONDITIONS: 3000 nM; exposure time: 72 h
REPORTED_PROPERTY: surviving fraction

molecule="C[C@@H]1C[C@@H]([C@H](O)CC2CC(=O)NC(=O)C2)C(=O)[C@@H](C)C1 [Cycloheximide]" reported_property="surviving fraction" measurement=0.305
molecule="CC(C)(Oc1ccc(C2CC2(Cl)Cl)cc1)C(=O)O (stereo not drawn) [Ciprofibrate]" reported_property="surviving fraction" measurement=0.986
molecule="Cc1cc(/C=C/c2ccc3cc(N(C)C)ccc3[n+]2C)c(C)n1-c1ccccc1 [Pyrvinium pamoate]" reported_property="surviving fraction" measurement=0.00213
molecule=CC(C)C[C@H](NC(=O)CNC(=O)c1cc(Cl)ccc1Cl)B1OC(=O)C(CC(=O)O)(CC(=O)O)O1 reported_property="surviving fraction" measurement=0.000933
molecule=COc1cc(/C=C/C(=O)N2CCC=CC2=O)cc(OC)c1OC reported_property="surviving fraction" measurement=0.104
molecule=CCCSc1ccc2[nH]c(NC(=O)OC)nc2c1 reported_property="surviving fraction" measurement=0.118
molecule=Oc1ccc(OCc2ccccc2)cc1 reported_property="surviving fraction" measurement=0.932
molecule="CC(C)C(=O)OCC(=O)[C@@]12O[C@H](C3CCCCC3)O[C@@H]1C[C@H]1[C@@H]3CCC4=CC(=O)C=C[C@]4(C)[C@H]3[C@@H](O)C[C@@]12C [Ciclesonide]" reported_property="surviving fraction" measurement=0.893

###

- Test system: E21
- MEASUREMENT_PROTOCOL: surviving fraction (nuclei count normalised to DMSO); higher = more cells surviving (less toxic)
- STATED_CONDITIONS: 111.1111111 nM; exposure time: 72 h
Where a name gives a salt, the structure may show the parent alone.
Where surviving fraction equals or exceeds 0.8, the correct label is YES; where it does not, the label is NO.

compound=COC(=O)Nc1nc2cc(C(=O)c3cccs3)ccc2[nH]1 label_value=NO
compound=Cc1[nH]nc(C(F)(F)F)c1Cc1sc2c(c1C(=O)N1C[C@](C)(O)CO1)c(=O)n(C)c(=O)n2C(C)C label_value=YES
compound="CCN(CC)CCCC(C)Nc1c2ccc(Cl)cc2nc2ccc(OC)cc12 (stereo not drawn) [Quinacrine dihydrochloride hydrate]" label_value=YES
compound=C[C@@H](O)[C@H]1C(=O)N2C(C(=O)O)=C(S[C@@H]3CN[C@H](C(=O)N(C)C)C3)[C@H](C)[C@H]12 label_value=YES
compound=Cc1cc(C)c(CN2CCc3c(Cl)cc(-c4c(C)noc4C)c(Cl)c3C2=O)c(=O)[nH]1 label_value=YES
compound=O=c1c2ccccc2[se]n1-c1ccccc1 label_value=YES

###

- System: FT3469 (normal neural stem cell line)
- MEASUREMENT_PROTOCOL: phenotypic distance (Euclidean, principal components) from DMSO controls (arbitrary units); higher = stronger morphological change
- STATED_CONDITIONS: 4.1 nM; exposure time: 72 h
Where a name gives a salt, the structure may show the parent alone.
Where phenotypic distance equals or exceeds 1, the correct label is YES; where it does not, the label is NO.

molecule=CN1CCC(NC(=O)c2cc(-c3c(O)cc(O)cc3Oc3ccc([N+](=O)[O-])cc3)on2)CC1 target=FT3469 label_value=YES
molecule=CC[n+]1c(/C=C/C=C2/N(C)c3ccccc3C2(C)C)sc2ccccc21 target=FT3469 label_value=YES
molecule=CC[C@@]1(O)C(=O)OCc2c1cc1n(c2=O)Cc2cc3c(CN(C)C)c(O)ccc3nc2-1 target=FT3469 label_value=YES
molecule=Cn1ncnc1[C@H]1c2n[nH]c(=O)c3cc(F)cc(c23)N[C@@H]1c1ccc(F)cc1 target=FT3469 label_value=YES
molecule=Cc1cc(CN2CCN(c3c(Br)cnc4nc(-c5ccc(N6CCN(C)CC6)cc5)[nH]c34)CC2)no1 target=FT3469 label_value=YES
molecule="Cc1cc(C(C)(C)CC(C)(C)C)ccc1OCCOCC[N+](C)(C)Cc1ccccc1 [Methyl benzethonium chloride]" target=FT3469 label_value=NO
molecule=Nc1ncnc2c1c(-c1ccc(Oc3ccccc3)cc1)cn2C1CCCC1 target=FT3469 label_value=NO
molecule="CCC1=C[C@@H]2CN(C1)Cc1c([nH]c3ccccc13)[C@@](C(=O)OC)(c1cc3c(cc1OC)N(C)[C@H]1[C@@](O)(C(=O)OC)[C@H](OC(C)=O)[C@]4(CC)C=CCN5CC[C@]31[C@@H]54)C2 [Vinorelbine Tartrate]" target=FT3469 label_value=NO
molecule="Cc1c(-c2ccc(-c3ccccc3F)cc2)nc2ccc(F)cc2c1C(=O)O [Brequinar sodium salt hydrate]" target=FT3469 label_value=NO
molecule=COC(=O)Nc1nc2cc(C(=O)c3ccc(F)cc3)ccc2[nH]1 target=FT3469 label_value=NO
molecule=Cc1nc2ccccn2c(=O)c1CCN1CCC(C(=O)c2ccc(F)cc2)CC1 target=FT3469 label_value=NO
